Source of measurements: patent US9073855B2

Below, each entry is listed alongside its reported Ki.
target: GST-Bcl-2 (Homo sapiens); assay: TR-FRET binding assay, GST-Bcl-2 with F-Bak peptide probe; conditions: TR-FRET Binding Affinity
Sequence (P10415 whole entry): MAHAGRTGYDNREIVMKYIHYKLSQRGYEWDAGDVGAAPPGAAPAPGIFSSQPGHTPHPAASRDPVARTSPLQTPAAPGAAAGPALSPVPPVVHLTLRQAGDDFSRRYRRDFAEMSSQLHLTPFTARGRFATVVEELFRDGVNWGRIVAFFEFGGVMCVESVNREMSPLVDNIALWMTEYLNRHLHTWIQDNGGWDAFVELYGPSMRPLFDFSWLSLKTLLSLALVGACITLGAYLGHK

>  <compound>
CC1(C)CCC(CN2CCN(c3ccc(C(=O)NS(=O)(=O)c4ccc(NCC5CN(S(C)(=O)=O)CCO5)c([N+](=O)[O-])c4)c(Oc4cccc5[nH]cnc45)c3)CC2)=C(c2ccc(Cl)cc2)C1 (stereo not drawn)

>  <Ki>
< 0.01 nM

$$$$
>  <compound>
CC1(C)CCC(CN2CCN(c3ccc(C(=O)NS(=O)(=O)c4cnc(OCC5CCC(C)(O)CC5)c(Cl)c4)c(Oc4cccc5[nH]ncc45)c3)CC2)=C(c2ccc(Cl)cc2)C1 (stereo not drawn) [Example 493]

>  <Ki>
< 0.01 nM

$$$$
>  <compound>
CO[C@H]1CC[C@H](CNc2ccc(S(=O)(=O)NC(=O)c3ccc(N4CCN(CC5=C(c6ccc(Cl)cc6)CC(C)(C)CC5)CC4)cc3Oc3cccc4[nH]cnc34)cc2[N+](=O)[O-])CC1

>  <Ki>
< 0.01 nM

$$$$

---

molecular target: GST-Bcl-XL (Homo sapiens, UniProt Q07817); assay: TR-FRET binding assay, GST-Bcl-XL with F-Bak peptide probe; conditions: TR-FRET Binding Affinity
Sequence (Q07817 whole entry): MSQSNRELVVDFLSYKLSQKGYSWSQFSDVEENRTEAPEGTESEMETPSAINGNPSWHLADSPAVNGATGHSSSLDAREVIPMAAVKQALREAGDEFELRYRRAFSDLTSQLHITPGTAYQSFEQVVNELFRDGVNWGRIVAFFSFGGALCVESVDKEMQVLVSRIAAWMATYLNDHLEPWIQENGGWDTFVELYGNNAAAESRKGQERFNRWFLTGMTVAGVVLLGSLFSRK
Below, each entry is listed alongside its reported Ki.

>  <molecule>
CC1(C)CCC(CN2CCN(c3ccc(C(=O)NS(=O)(=O)c4cnc(OCC5CCC(C)(O)CC5)c(Cl)c4)c(Oc4cccc5[nH]ncc45)c3)CC2)=C(c2ccc(Cl)cc2)C1 (stereo not shown) [Example 493]

>  <Ki, nM>
41.9

$$$$
>  <molecule>
CC1(C)CCC(CN2CCN(c3ccc(C(=O)NS(=O)(=O)c4ccc(OCC5(F)CCOCC5)c([N+](=O)[O-])c4)c(Oc4cccc5[nH]nnc45)c3)CC2)=C(c2ccc(Cl)cc2)C1

>  <Ki, nM>
311

$$$$
>  <molecule>
CC1(C)CCC(CN2CCN(c3ccc(C(=O)NS(=O)(=O)c4ccc(N[C@H]5CC[C@H](N6CCOCC6)CC5)c([N+](=O)[O-])c4)c(Oc4cccc5[nH]cnc45)c3)CC2)=C(c2ccc(Cl)cc2)C1

>  <Ki, nM>
6

$$$$
>  <molecule>
COC(=O)N1CCOC(CNc2ccc(S(=O)(=O)NC(=O)c3ccc(N4CCN(CC5=C(c6ccc(Cl)cc6)CC(C)(C)CC5)CC4)cc3Oc3cccc4[nH]ncc34)cc2[N+](=O)[O-])C1 (stereo not shown)

>  <Ki, nM>
4.86

$$$$
>  <molecule>
CC1(C)CCC(CN2CCN(c3ccc(C(=O)NS(=O)(=O)c4cnc(OCC5(F)CCC(C)(O)CC5)c(Cl)c4)c(Oc4cccc5[nH]ncc45)c3)CC2)=C(c2ccc(Cl)cc2)C1 (stereo not shown)

>  <Ki, nM>
17.3

$$$$
>  <molecule>
CC1(C)CCC(CN2CCN(c3ccc(C(=O)NS(=O)(=O)c4cnc(OC[C@@H]5CN(C6CC6)CCO5)c(Cl)c4)c(Oc4cccc5[nH]cnc45)c3)CC2)=C(c2ccc(Cl)cc2)C1

>  <Ki, nM>
147

$$$$
>  <molecule>
CC1(C)CCC(CN2CCN(c3ccc(C(=O)NS(=O)(=O)c4cnc(OCC5CCC(F)(F)CC5)c(Cl)c4)c(Oc4cccc5[nH]ncc45)c3)CC2)=C(c2ccc(Cl)cc2)C1

>  <Ki, nM>
350

$$$$
>  <molecule>
CC1(C)CCC(CN2CCN(c3ccc(C(=O)NS(=O)(=O)c4cnc(OC[C@@H]5C[C@H]6C[C@@H]5C[C@@]6(C)O)c(Cl)c4)c(Oc4cccc5[nH]ncc45)c3)CC2)=C(c2ccc(Cl)cc2)C1

>  <Ki, nM>
15.4

$$$$
>  <molecule>
CC1(C)CCC(CN2CCN(c3ccc(C(=O)NS(=O)(=O)c4ccc(OCC5(F)CCN(C6COC6)CC5)c(Cl)c4)c(Oc4cccc5[nH]ncc45)c3)CC2)=C(c2ccc(Cl)cc2)C1

>  <Ki, nM>
6.08

$$$$
>  <molecule>
CC1(C)CCC(CN2CCN(c3ccc(C(=O)NS(=O)(=O)c4ccc(NCC5CCOC5)c([N+](=O)[O-])c4)c(Oc4cccc5[nH]cnc45)c3)CC2)=C(c2ccc(Cl)cc2)C1 (stereo not shown)

>  <Ki, nM>
15

$$$$
